Some variants, each annotated with its measured protein stability index.
B1: HESX1 (parent)
chain: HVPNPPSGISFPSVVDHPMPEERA

variants of: B1; test: protein stability index of a GFP-peptide fusion (GPS, HEK-293T) (PSI 1-6); higher = more stable; conditions: c terminus: a fixed tail appended;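 also: lentivirally expressed fusions sorted by FACS into six bins by GFP to DsRed ratio, PSI derived from sequencing read proportions per bin multiplied by bin number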
The response must contain the number and no unit.

> print(dat)
   mutation.code  reported.result
1            I9V             2.94
2           P18F             2.42
3            G8Q             3.18
4           P12R             3.42
5            S7A             3.88
6           D16A             2.72

# protein stability index (variant: E22N ) is 2.02

# protein stability index (variant: P12V ) is 2.99

# protein stability index (variant: I9F ) is 3.22

# protein stability index (variant: F11P ) is 5.21

# protein stability index (variant: H1P ) is 5.28

# protein stability index (variant: P3W ) is 2.94

# protein stability index (variant: P12Q ) is 3.92

# protein stability index (variant: N4W ) is 3.44

# protein stability index (variant: E22S ) is 2.3

# protein stability index (variant: M19S ) is 3.18

# protein stability index (variant: P6Y ) is 2.39

# protein stability index (variant: P3R ) is 2.27

Cited source: the supplement of paper PMC10567573
